Target: P2X7 (Homo sapiens (Human))
Sequence (Q99572 whole entry): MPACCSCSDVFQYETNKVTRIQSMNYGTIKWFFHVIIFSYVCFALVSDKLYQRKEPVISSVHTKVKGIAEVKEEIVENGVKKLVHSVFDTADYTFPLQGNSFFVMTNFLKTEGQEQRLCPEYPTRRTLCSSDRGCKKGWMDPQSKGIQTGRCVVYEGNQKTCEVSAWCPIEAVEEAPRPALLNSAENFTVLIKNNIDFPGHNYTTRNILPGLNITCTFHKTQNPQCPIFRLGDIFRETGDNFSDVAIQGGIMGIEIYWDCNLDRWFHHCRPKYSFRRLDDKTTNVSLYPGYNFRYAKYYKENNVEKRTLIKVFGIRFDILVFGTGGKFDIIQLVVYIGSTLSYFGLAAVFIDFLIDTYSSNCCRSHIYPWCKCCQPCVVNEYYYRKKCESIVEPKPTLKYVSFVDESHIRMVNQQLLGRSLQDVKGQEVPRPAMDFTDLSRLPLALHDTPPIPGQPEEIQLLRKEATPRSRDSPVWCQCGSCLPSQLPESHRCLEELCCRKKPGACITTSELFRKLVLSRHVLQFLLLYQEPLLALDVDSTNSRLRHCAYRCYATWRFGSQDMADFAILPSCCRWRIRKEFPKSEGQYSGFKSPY
Test: P2X7 antagonism in human peripheral blood mononuclear cells (PBMCs), IL-1β release
Type: cell-based
Details: P2X7, Table 2 (additional runs), 10 μM compound, LPS 30 ng/ml + Bz-ATP 0.5 mM, read-out: PBMC 10 μM (% control)

{"columns": ["MOLECULE", "remaining activity at 10 µM / %"],
 "data": [
  ["O=C(c1cccc(C(F)(F)F)c1Cl)N1[C@H]2CCC[C@@H]1c1nnc(-c3cscn3)n1C2 (stereo in doubt)", 7.3],
  ["Cc1c(C(=O)N2[C@H]3CC[C@@H]2c2nnc(-c4cscn4)n2C3)cccc1C(F)(F)F", 4],
  ["O=C(c1cccc(C(F)(F)F)c1Cl)N1[C@H]2CCC[C@@H]1c1nnc(-c3ccc(F)cn3)n1C2 (stereo in doubt)", 38.9],
  ["O=C(c1cccc(C(F)(F)F)c1Cl)N1[C@@H]2CCC[C@H]1c1nnc(-c3cscn3)n1C2 (stereo in doubt)", 7.3],
  ["O=C(c1cccc(C(F)(F)F)c1Cl)N1[C@@H]2CCC[C@H]1c1nnc(-c3ncc(F)cn3)n1C2 (stereo in doubt)", -9],
  ["O=C(c1cccc(C(F)(F)F)c1Cl)N1[C@H]2CCC[C@@H]1c1nnc(-c3ncccn3)n1C2 (stereo in doubt)", 45.7],
  ["O=C(c1cccc(C(F)(F)F)c1Cl)N1[C@@H]2CCC[C@H]1c1nnc(-c3ccncn3)n1C2 (stereo in doubt)", 1.8],
  ["Cc1ccc(-c2nnc3n2C[C@H]2CCC[C@@H]3N2C(=O)c2ccnc(C(F)(F)F)c2Cl)s1 (stereo in doubt)", 5.8],
  ["O=C(c1cccc(C(F)(F)F)c1Cl)N1[C@H]2CC[C@@H]1c1nnc(-c3ncccn3)n1C2", 10],
  ["O=C(c1ccc(F)c(C(F)(F)F)c1Cl)N1[C@@H]2CCC[C@H]1c1nnc(-c3ccccn3)n1C2 (stereo in doubt)", 7.7],
  ["O=C(c1ccc(F)c(Cl)c1Cl)N1[C@@H]2CCC[C@H]1c1nnc(-c3ccccn3)n1C2 (stereo in doubt)", -5],
  ["COc1ccnc(-c2nnc3n2C[C@@H]2CCC[C@H]3N2C(=O)c2cccc(C(F)(F)F)c2Cl)c1 (stereo in doubt)", 9.2],
  ["Cc1ccnc(-c2nnc3n2C[C@H]2CCC[C@@H]3N2C(=O)c2cccc(C(F)(F)F)c2Cl)c1 (stereo in doubt)", -13]
]}

###

Molecular target: P2X7 (Homo sapiens (Human))
Assay: P2X7 antagonism in human peripheral blood mononuclear cells (PBMCs), IL-1β release
Type: cell-based
Settings: P2X7, Table 2 (additional runs), 10 μM compound, LPS 30 ng/ml + Bz-ATP 0.5 mM, read-out: PBMC 10 μM (% control)

{"columns": ["COMPOUND", "remaining activity at 10 µM (%)"],
 "data": [
  ["O=C(c1ccnc(C(F)(F)F)c1F)N1[C@@H]2CCC[C@H]1c1nnc(-c3ccccn3)n1C2 (stereo in doubt) [Example 198]", 4.1],
  ["Cc1cccc(-c2nnc3n2C[C@H]2CCC[C@@H]3N2C(=O)c2cccc(C(F)(F)F)c2Cl)n1 (stereo in doubt) [Example 24]", 32.7],
  ["O=C(c1cccc(C(F)(F)F)c1Cl)N1[C@@H]2CCC[C@H]1c1nnc(-c3ncccn3)n1C2 (stereo in doubt) [Example 3]", 8.9],
  ["O=C(c1ccnc(C(F)(F)F)c1Cl)N1[C@H]2CCC[C@@H]1c1nnc(-c3cccs3)n1C2 (stereo in doubt) [Example 35]", 82.2],
  ["O=C(c1ccc(Cl)cc1Cl)N1[C@@H]2CCC[C@H]1c1nnc(-c3ncc(F)cn3)n1C2 (stereo in doubt) [Example 21]", -2.1],
  ["O=C(c1cccc(C(F)(F)F)c1Cl)N1[C@@H]2CCC[C@H]1c1nnc(-c3cccnn3)n1C2 (stereo in doubt) [Example 195]", 11.2]
]}

These entries and their values trace back to patent US10053462B2.
